# Tested on: L1210 leukemia ip in BDF1 mice, survival T/C
# assay protocol: NCI In Vivo Anticancer Drug Screen. Data for tumor model L1210 Leukemia (intraperitoneal) in B6D2F1 (BDF1) mice
# condition summary: endpoint: mean survival time; dose: 100.0 mg/kg/injection; schedule: Q01DX001 (ip); vehicle: carboxymethylcellulose (CMC); higher = longer survival
Toxic doses and inconclusive results are not listed.
Exercise: state measured T/C for each of the compounds provided.

# compound "CC(=O)Nc1ccc(C=O)s1" ; its T/C = 97 % of control

# compound NC(CSCc1ccccc1)C(=O)O (configuration not stated) ; its T/C = 101 % of control

# compound "O=[N+]([O-])c1ccc(O)c(/C=N/Nc2nnc(N/N=C/c3cc([N+](=O)[O-])ccc3O)c3ccccc23)c1" ; its T/C = 93 % of control

# compound CN(C)C1c2cc(Cl)ccc2-c2c(N)cc(Cl)cc21 (configuration not stated) ; its T/C = 98 % of control

# compound "CCOC(=O)NP(=O)(Nc1ccc(C)cc1)Nc1ccc(C)cc1" ; its T/C = 98 % of control

# compound "Nc1ccc(Cl)c(Cl)c1" ; its T/C = 93 % of control

# compound "Cc1ccc(S(=O)(=O)N(CCC(=O)O)Cc2ccccc2)cc1" ; its T/C = 121 % of control

# compound OCC1OC(n2ccc3c(N4CCCCC4)ncnc32)C(O)C1O (configuration not stated) ; its T/C = 95 % of control

# compound "Cc1cc(N(CCCl)CCCl)ccc1C=Nc1ccc(C(=O)O)c(O)c1" ; its T/C = 111 % of control

# compound NC(CC(=O)O)C(=O)O (configuration not stated) ; its T/C = 94 % of control

# compound "O=C(O)COc1cc(Cl)c(Cl)cc1Cl" ; its T/C = 106 % of control

# compound "CC(C)N(C(=O)Nc1cc(C(F)(F)F)ccc1Cl)C1CCCCC1" ; its T/C = 95 % of control
